Origin of values: patent US20180251847A1

- System: R2.2 (HCT116-RDAC)
- TEST: MTT based cell survival assay, DAC resistant HCT116 clone R2.2
- Design: species or system human
- SETUP_CONDITIONS: Homo sapiens, HCT-116; R2.2, MTT, 72 h drug treatment; read-out: Mean IC50
Kindly supply the reported pIC50 values for the records listed here.
Give bare numbers, as −log10 of the molar value.

{"COMPOUND_STRING": "COc1cc2nc(N3CCCN(C)CC3)nc(NC3CCN(Cc4ccccc4)CC3)c2cc1OC", "pIC50": 5.49}

The measured pIC50 associated with "Nc1ncn([C@@H]2O[C@H](CO)[C@@H](O)[C@H]2O)c(=O)n1" reads 4.84

====

Give pIC50 for every item shown.
- System: HCT116
- TEST: MTT based cell survival assay, parental HCT116
- Parameters: species or system human
- SETUP_CONDITIONS: Homo sapiens, HCT-116; HCT116 parental, MTT, 72 h drug treatment; read-out: Mean IC50
Give bare numbers, as −log10 of the molar value.

Known pIC50 results, listed for orientation:
{"COMPOUND_STRING": "O=c1ncccn1[C@@H]1O[C@H](CO)[C@@H](O)[C@H]1O", "pIC50": 4.07}
{"COMPOUND_STRING": "COc1cc2nc(N3CCCN(C)CC3)nc(NC3CCN(Cc4ccccc4)CC3)c2cc1OC", "pIC50": 5.59}

Could you now look at the following molecule, please?
I looked up "Nc1ncn([C@@H]2O[C@H](CO)[C@@H](O)[C@H]2O)c(=O)n1" and its pIC50 for HCT116 was 5.52

====

Could you please report measured IC50 for the items listed next?
- Test system: R1.2 (HCT116-RDAC)
- TEST: MTT based cell survival assay, DAC resistant HCT116 clone R1.2
- Set-up: species or system human
- SETUP_CONDITIONS: Homo sapiens, HCT-116; R1.2, MTT, 72 h drug treatment; read-out: Mean IC50
One number for each entry, in µM.

{"COMPOUND_STRING": "Nc1ncn([C@@H]2O[C@H](CO)[C@@H](O)[C@H]2O)c(=O)n1", "SYSTEM_TESTED": "R1.2 (HCT116-RDAC)", "UNIT_ANNOTATION": "µM", "IC50": 11.7}

Now consider the entry below.
Entry "COc1cc2nc(N3CCCN(C)CC3)nc(NC3CCN(Cc4ccccc4)CC3)c2cc1OC" ; IC50 = 3.02

====

- Tested on: HCT116
- TEST: MTT based cell survival assay, parental HCT116
- Set-up: species or system human
- SETUP_CONDITIONS: Homo sapiens, HCT-116, 72 h, read-out: Mean IC50
Where a name gives a salt, the structure may show the parent alone.
QUANTITY_NAME: pIC50
Numbers only, as −log10 of the molar value.

The following compounds have reported results that may help.
{"COMPOUND": "C/C=C1\\NC(=O)[C@H]2CSSCC/C=C/[C@H](CC(=O)N[C@H](C(C)C)C(=O)N2)OC(=O)[C@H](C(C)C)NC1=O [Romidepsin]", "pIC50": 8.55}
{"COMPOUND": "Nc1ncn([C@H]2C[C@H](O)[C@@H](CO)O2)c(=O)n1 [DAC, 2′-deoxy-5-azacytidine]", "pIC50": 6.55}

Consider COc1cc2c(cc1-c1c(C)noc1C)ncc1[nH]c(=O)n([C@H](C)c3ccccn3)c12 [I-BET 151, I-BET 151 hydrochloride] . Its measured pIC50 is 5.28

====

- Tested on: MCF-7
- TEST: MTT based cell survival assay, parental MCF-7
- SETUP_CONDITIONS: Homo sapiens, MCF7, read-out: Mean IC50
QUANTITY_NAME: IC50 (nM)
One number for each entry, in nM.

# IC50 (molecule: "Nc1ncn([C@H]2C[C@H](O)[C@@H](CO)O2)c(=O)n1" ) is 238

====

- System: HL-60_RDAC
- TEST: MTT based cell survival assay, DAC resistant HL-60
- Design: species or system human
- SETUP_CONDITIONS: Homo sapiens, HL-60, read-out: Mean IC50
pIC50: −log10 of the molar value.
QUANTITY_NAME: pIC50

What the record says about "Nc1ncn([C@H]2C[C@H](O)[C@@H](CO)O2)c(=O)n1" : pIC50 is < 4.00

====

- System: R1.3 (HCT116-RDAC)
- TEST: MTT based cell survival assay, DAC resistant HCT116 clone R1.3
- Set-up: species or system human
- SETUP_CONDITIONS: Homo sapiens, HCT-116; R1.3, MTT, 72 h drug treatment; read-out: Mean IC50
Give measured pIC50 for each item. Keep answers brief.
Give bare numbers, as −log10 of the molar value.

{"COMPOUND_STRING": "COc1cc2nc(N3CCCN(C)CC3)nc(NC3CCN(Cc4ccccc4)CC3)c2cc1OC", "QUANTITY_NAME": "pIC50", "ASSAY_VALUE": 5.53}

Next item in the queue.
The measured pIC50 that "Nc1ncn([C@@H]2O[C@H](CO)[C@@H](O)[C@H]2O)c(=O)n1" showed for R1.3 (HCT116-RDAC) is 4.98

====

Would you kindly list IC50 for each of these compounds?
- Tested on: R1.1 (HCT116-RDAC)
- TEST: MTT based cell survival assay, DAC resistant HCT116 clone R1.1
- Design: species or system human
- SETUP_CONDITIONS: R1.1, MTT, 72 h drug treatment; read-out: Mean IC50
Answers are plain numbers, in µM.

Field: example entries. Status: answers known.
{"COMPOUND_STRING": "CC1=NN(c2ccc(C(=O)O)cc2)C(=O)/C1=C\\c1ccc(-c2cc(C)c(C)cc2[N+](=O)[O-])o1", "IC50 [µM]": 45.1}
{"COMPOUND_STRING": "O=C(O)c1ccc(O)c2ncccc12", "IC50 [µM]": 41.6}
{"COMPOUND_STRING": "CCCCCCCCCCCCCCCc1cccc(O)c1C(=O)O", "IC50 [µM]": 128}

Log: R1.1 (HCT116-RDAC), compound "CCOC(=O)CCNc1cc(N2CCc3ccccc3CC2)nc(-c2ccccn2)n1" , IC50 = 3.45

====

- Test system: R1.1 (HCT116-RDAC)
- TEST: MTT based cell survival assay, DAC resistant HCT116 clone R1.1
- Parameters: species or system human
- SETUP_CONDITIONS: Homo sapiens, HCT-116, 72 h, read-out: Mean IC50
Where a name gives a salt, the structure may show the parent alone.
QUANTITY_NAME: pIC50
Answers are plain numbers, as −log10 of the molar value.

{"MOLECULE": "COc1cc2c(cc1-c1c(C)noc1C)ncc1[nH]c(=O)n([C@H](C)c3ccccn3)c12 [I-BET 151, I-BET 151 hydrochloride]", "ASSAY_VALUE": 5.57}

Lab note: next molecule to report on.
Lab note: measured pIC50 of "C/C=C1\NC(=O)[C@H]2CSSCC/C=C/[C@H](CC(=O)N[C@H](C(C)C)C(=O)N2)OC(=O)[C@H](C(C)C)NC1=O" was 8.51
